system: CCRIS mutagenicity, Ames/micronucleus/aberration tests; experiment: CCRIS mutagenicity studies; settings: Test System: AMES SALMONELLA TYPHIMURIUM; Strain/Indicator: TA97; Metabolic Activation: RAT, LIVER, S-9, AROCLOR 1254; Method: STANDARD PLATE
Activity calls are given as the source filed them. No rule for the calls is given here.
reported.metric: mutagenic call

Examples with their reported mutagenic call follow.
• CC(O)CN(C)c1ccc(NN)nn1 (stereo not given) = active; positive
• Cc1ccccn1 = inactive; negative
• c1cc2ccc3cccc4ccc(c1)c2c34 = active; positive
• N=c1c2ncn(C(c3ccccc3)(c3ccccc3)c3ccccc3)c2ncn1O = inactive; negative
• C/C=C\c1ccc(OC)cc1OC = inactive; negative

Query: Name the recorded mutagenic call for Clc1cccnc1 .
Response: inactive; negative

Query: Can you handle O=C1O[C@H]([C@@H](O)CO)C(O)=C1O next?
Response: inactive; negative

Query: Can you handle CC1NC(C(=O)O)Cc2c1[nH]c1ccccc21 (stereo not given) next?
Response: inactive; negative

Query: Can you handle NC(N)=S next?
Response: inactive; negative

Query: Can you handle BrCCBr next?
Response: active; positive

Query: Can you handle CCC(CCC(C)O)COC(=O)CCCCC(=O)O (stereo not given) next?
Response: inactive; negative

Query: Can you handle O=C(COc1ccc(Cl)cc1Cl)N[C@@H](Cc1c[nH]c2ccccc12)C(=O)O next?
Response: inactive; negative

Query: Can you handle Cc1cc(=O)n(-c2ccccc2)n1C next?
Response: inactive; negative

Query: Can you handle Fc1cccc(F)n1 next?
Response: inactive; negative

Query: Can you handle COc1cc2c(CCNC(C)=O)c[nH]c2cc1O next?
Response: inactive; negative

----------
system: CCRIS mutagenicity, Ames/micronucleus/aberration tests; experiment: CCRIS mutagenicity studies; settings: Test System: AMES SALMONELLA TYPHIMURIUM; Strain/Indicator: TA98; Metabolic Activation: NONE
Calls of active or inactive are those of the source. No rule for the calls is given here.
// allowed return values: 1.0 (active), 0.0 (inactive)

Here are 2 molecules together with their reported answers.
* CCCCCCCCCC(=O)OCCN1CCN(CCCN2c3ccccc3Sc3ccc(C(F)(F)F)cc32)CC1 | 0.0
* C#CCc1ccc(COC(=O)C2C(C=C(C)C)C2(C)C)o1 (centres undefined) | 0.0

Query: Assay outcome for COP(=O)(OC)O/C(=C\Cl)c1cc(Cl)c(Cl)cc1Cl : what was it?
Response: 0.0

Query: Can you handle Cc1cccc(Nc2cc(Cl)nc(SCC(=O)NCCO)n2)c1C next?
Response: 0.0

Query: Can you handle O=[N+]([O-])c1ccc2c(c1)CCc1cc3c(cc1-2)CCc1ccccc1-3 next?
Response: 1.0

Query: Can you handle [O-][n+]1c2ccccc2c2ccc3cccc4ccc1c2c34 next?
Response: 0.0

----------
system: CCRIS mutagenicity, Ames/micronucleus/aberration tests; assay: CCRIS mutagenicity studies; details: Test System: AMES SALMONELLA TYPHIMURIUM; Strain/Indicator: TA100; Metabolic Activation: RAT, LIVER, S-9, AROCLOR 1254; Method: DESICCATOR
Active and inactive are the calls of the source. No rule for the calls is given here.
// allowed return values: active, inactive

Here are 3 molecules together with their reported answers.
• CC(Cl)(Cl)Cl = active
• ClC=C(Cl)Cl = inactive
• CCBr = active

Query: Assay outcome for CC(C)(C)Br : what was it?
Response: active

----------
tested on: CCRIS mutagenicity, Ames/micronucleus/aberration tests; assay: CCRIS mutagenicity studies; conditions: Test System: AMES SALMONELLA TYPHIMURIUM; Strain/Indicator: TA7005; Metabolic Activation: NONE; Method: FLUCTUATION (MICROTITER)
Calls of active or inactive are those of the source. The rule behind the calls is not given here.
reported.metric: mutagenic call

* CC(O)CCl (centres undefined) | inactive; negative
* Oc1ccccc1 | inactive; negative
* O=Cc1ccccc1 | inactive; negative
* Oc1cccc2cccnc12 | inactive; negative

----------
test system: CCRIS mutagenicity, Ames/micronucleus/aberration tests; test: CCRIS mutagenicity studies; details: Test System: AMES SALMONELLA TYPHIMURIUM; Strain/Indicator: TA100; Metabolic Activation: S-9; Method: STANDARD PLATE
Active and inactive are the calls of the source. How the calls were made is not given here.
// allowed return values: YES = active, NO = inactive

Here are 6 molecules together with their reported answers.
- CC(=O)Nc1snc2c(Cl)cc(Cl)cc12: NO
- N#Cc1cccc(/C=C\c2ccc([N+](=O)[O-])cc2)c1: YES
- CN(C(=O)CCl)c1snc2ccccc12: NO
- CCCCCCCCCc1ccccc1Oc1ccccc1CCCCCCCCC: NO
- NC(=Nc1ccccc1)Nc1ccccc1: NO
- O=C(NC(Cc1cc(=O)[nH]c2ccccc12)C(=O)O)c1ccc(Cl)cc1 (configuration not stated): NO

Consider the record given below.
Query: Assay outcome for Nc1ccc(/C=C/c2ccc(Cl)cc2)cc1 : what was it?
Response: YES

----------
test system: CCRIS mutagenicity, Ames/micronucleus/aberration tests; assay: CCRIS mutagenicity studies; details: Test System: AMES SALMONELLA TYPHIMURIUM; Strain/Indicator: TA1537; Metabolic Activation: NONE; Method: STANDARD PLATE
Calls of active or inactive are those of the source. No rule for the calls is given here.
// allowed return values: active, inactive

Here are 5 molecules together with their reported answers.
• COc1cc(NC(C)CCCN)c2ncccc2c1 (centres undefined) = inactive
• CCCCCCCCSCn1cc[n+](C)c1 = inactive
• Nc1ccccc1C(F)(F)F = inactive
• Nc1ccc2c(c1)[nH]c1ccccc12 = inactive
• O=c1c(Cl)c(Cl)cnn1S(=O)(=O)c1ccc(Cl)cc1 = inactive

Consider the record given below.
Query: Assay outcome for CN1Cc2c(N)cccc2C(c2ccccc2)C1 (centres undefined) : what was it?
Response: inactive

----------
system: CCRIS mutagenicity, Ames/micronucleus/aberration tests; test: CCRIS mutagenicity studies; conditions: Test System: AMES SALMONELLA TYPHIMURIUM; Strain/Indicator: TA1537; Metabolic Activation: HAMSTER, LIVER, S-9, AROCLOR 1254 (10%); Method: PREINCUBATION
Active and inactive are the calls of the source. No rule for the calls is given here.
// allowed return values: active, inactive

Here are 6 compounds together with their reported answers.
- CCCCCCCCOP(=O)(OCCCCCCCC)OCCCCCCCC: inactive
- CCCNCCC: inactive
- CCOP(=O)(OCC)OCC: inactive
- B#B: inactive
- CCOCCOC(=O)/C=C/c1ccc(OC)cc1: inactive
- F: inactive

Query: Assay outcome for CNCCS(=O)(=O)O : what was it?
Response: inactive

Query: Can you handle O=C(O)c1ccc2c(c1)C(=O)OC2=O next?
Response: inactive

Query: Can you handle O[C@H]([C@H](O)[C@@H](O)CBr)[C@H](O)CBr next?
Response: inactive

----------
tested on: CCRIS mutagenicity, Ames/micronucleus/aberration tests; experiment: CCRIS mutagenicity studies; conditions: Test System: AMES SALMONELLA TYPHIMURIUM; Strain/Indicator: TA98; Metabolic Activation: RAT, LIVER, S-9, AROCLOR 1254 (10%); Method: PREINCUBATION
Calls of active or inactive are those of the source. No rule for the calls is given here.
// allowed return values: Y for active, N for inactive

Here are 8 compounds together with their reported answers.
- COC(=O)c1ccccc1C(=O)OC: N
- CCN: N
- C=C(C)C(=O)OCCCCCCCCCC: N
- CCCNCCC: N
- OCC(CO)(CBr)CBr: N
- N[C@H](Cc1ccccc1)C(=O)O: N
- [Cl][Hg][Cl]: N
- CC(C)[N+](C)(CCOC(=O)C1c2ccccc2Oc2ccccc21)C(C)C: N

Query: Assay outcome for O=C1C=C(O)c2ccccc2C1=O : what was it?
Response: N

Query: Can you handle BrCC(Br)C1CCC(Br)C(Br)C1 (stereo unspecified) next?
Response: N

Query: Can you handle CCOCCOC(=O)/C=C/c1ccc(OC)cc1 next?
Response: N

Query: Can you handle CNCCS(=O)(=O)O next?
Response: N

Query: Can you handle CCCCC(CC)CNCC(CC)CCCC (stereo unspecified) next?
Response: N

Query: Can you handle Oc1ccc2ccccc2c1N=Nc1ccccc1 next?
Response: Y

Query: Can you handle COP(=S)(OC)SCn1nnc2ccccc2c1=O next?
Response: Y

Query: Can you handle Cc1cccc(N)c1C next?
Response: N

Query: Can you handle O[C@H]([C@H](O)[C@@H](O)CBr)[C@H](O)CBr next?
Response: N

Query: Can you handle CC1(C)CC(N=C=O)CC(C)(CN=C=O)C1 (stereo unspecified) next?
Response: N

Query: Can you handle Cc1cc(N=Nc2c(O)ccc3ccccc23)c(S(=O)(=O)O)cc1Cl next?
Response: N

Query: Can you handle c1ccc2c(c1)ccc1ccccc12 next?
Response: N

Query: Can you handle Cc1cc(O)c(C(C)(C)C)cc1Sc1cc(C(C)(C)C)c(O)cc1C next?
Response: N

Query: Can you handle O.[Al+3].[Al+3].[Na+].[Na+].[O-2].[O-2].[O-2].[O-2].[O-2].[O-2].[Si+4] next?
Response: N

Query: Can you handle Oc1cc(Cl)c(Cl)c(Cl)c1 next?
Response: N

Query: Can you handle O=c1c2[nH]c3ccccc3c2nnn1/N=C/c1ccc(Cl)cc1 next?
Response: Y

Query: Can you handle Nc1ccc(NCCO)c([N+](=O)[O-])c1 next?
Response: Y

Query: Can you handle Oc1c(Br)c(Br)c(Br)c(Br)c1Br next?
Response: N

Query: Can you handle FC(F)(F)c1cccc(Cl)c1 next?
Response: N
